System: paw edema induced by phospholipase A2 from Naja naja venom
Test: Phospholipase A2 rat paw edema
Format: in vivo, Lewis rats
Details: 30 mg/kg ip, 1 hr prior to PLA2, 2 hr, read-out: % Inhib of PLA2 Paw Edema 2 hr 30 mg/kg ip
measure: inhibition in vivo at 30 mg/kg (%)
Write down the numeric answer in % and omit the unit.

Some solved entries appear below for comparison.
CCCCCCCCCCCCCCCCCCOc1cc(OCCCOc2cccc(N)c2)cc(C(=O)N(CC(=O)O)CC(=O)O)c1 = 40
CCCCCCCCCCCCCC(=O)Nc1cc(NC(=O)CCCCCCCCCCCCC)cc(C(=O)N(CC(=O)O)CC(=O)O)c1 = 57
CCCCCCCCCCCCCCCCCCOc1cc(OCCOCCOCCOCC)cc(C(=O)N(CC(=O)O)CC(=O)O)c1 = 43
CCCCCCCCCCCCCCCCCCOc1cccc(C(=O)N(CC(=O)O)CC(=O)O)c1 = 35
CCCCCCCCCCCCCCCCCCOc1ccc(C(=O)C(=O)N(CC(=O)O)CC(=O)O)cc1 = 71

Inquiry: I would be grateful if you could share the reported inhibition in vivo at 30 mg/kg for CCCCCCCCCCOc1cc(OCCCCCCCCCC)cc(C(=O)C(=O)N(CC(=O)O)CC(=O)O)c1 .
Reply text: 32

Inquiry: I would be grateful if you could share the reported inhibition in vivo at 30 mg/kg for CCCCCCCCCCCCCCCCCCOc1cc(OCCCOc2cccc([N+](=O)[O-])c2)cc(C(=O)N(CC(=O)O)CC(=O)O)c1 .
Reply text: 64

Inquiry: I would be grateful if you could share the reported inhibition in vivo at 30 mg/kg for CCCCCCCCCCCCCCCCCCOc1ccc(O)c(C(=O)N(CC(=O)O)CC(=O)O)c1 .
Reply text: 60

Inquiry: I would be grateful if you could share the reported inhibition in vivo at 30 mg/kg for CCCCCCCCCCOc1cc(OCCCCCCCCCC)cc(C(=O)N(CC(=O)O)CC(=O)O)c1 .
Reply text: 0
